Below: a set of entries, each annotated with reported ED50.
# Organism: Rattus norvegicus
# experiment.description: Inhibition of cholera toxin induced intestinal fluid secretion in rat
# Assay type: functional
# experimental.setup: read-out: ID50 (the source's name)
Answer with a number only, understood to be in mg/kg.

May I ask what ED50 has been recorded for COc1cc(C)c(/C=N/N=C(N)N)c(C)c1 ?
27

May I ask what ED50 has been recorded for Cc1cccc(C)c1/C=N/NC1=NCCN1 ?
7.9

May I ask what ED50 has been recorded for N=C(N)N/N=C/c1cccc2ccccc12 ?
34.6

May I ask what ED50 has been recorded for Cc1cccc(C)c1/C=N/N=C(N)N ?
1.6

May I ask what ED50 has been recorded for Cc1cc(C)c(/C=N/N=C(N)N)c(C)c1 ?
16.6

May I ask what ED50 has been recorded for N=C(N)N/N=C/c1c(Cl)cccc1Cl ?
1.3

May I ask what ED50 has been recorded for COc1ccc2c(c1)CCC/C2=N\N=C(N)N ?
20.5

May I ask what ED50 has been recorded for N=C(N)N/N=C1\CCCc2ccccc21 ?
30.6

May I ask what ED50 has been recorded for Cc1cc(O)cc(C)c1/C=N/N=C(N)N ?
3.4

Let's switch to this compound now.
May I ask what ED50 has been recorded for C/C(=N\N=C(N)N)c1c(C)cccc1C ?
13.3
